# protocol_notes: Mouse liver microsomes stability with NADPH
# experimental_context: mouse liver microsomes, with NADPH, 2 μM
In this scheme, each record receives a class according to its Remaining Percentage (%) after 60 min, Mouse; the ranges are category 1 = under 50%, category 2 = from 50% up to 60%, category 3 = 60% and over

molecule=[2H]C([2H])(c1c[nH]c2cccc(OC)c12)[C@H]1CCCN1C([2H])([2H])[2H] qualitative_label="category 3"
molecule="CN(C)CCc1c[nH]c2cccc(O)c12 [Psilocin, 4-hydroxy-N,N-dimethyltryptamine, reference compound]" qualitative_label="category 3"
molecule=[2H]C([2H])(c1c[nH]c2cccc(F)c12)[C@H]1CCCN1C([2H])([2H])[2H] qualitative_label="category 1"
molecule=[2H]C([2H])(c1c[nH]c2cccc(O)c12)[C@H]1CCCN1 qualitative_label="category 2"
molecule=[2H]C([2H])(c1c[nH]c2cccc(OC(=O)CCCCCCC/C=C\C/C=C\CCCCC)c12)[C@H]1CCCN1C([2H])([2H])[2H] qualitative_label="category 1"
molecule=[2H]C([2H])([2H])N1CCC[C@@H]1Cc1c[nH]c2cccc(OC(=O)CCCCCCC/C=C\C/C=C\CCCCC)c12 qualitative_label="category 1"
molecule=[2H]C([2H])([2H])N1CCC[C@@H]1Cc1c[nH]c2cccc(F)c12 qualitative_label="category 2"
molecule=[2H]C([2H])(c1c[nH]c2cccc(O)c12)[C@H]1CCCN1C([2H])([2H])[2H] qualitative_label="category 2"

====

# protocol_notes: In vivo pharmacokinetics in male C57BL/6 mice (IV and PO)
# experimental_context: male, C57BL/6, plasma; mouse, IV, 5 mg/kg; read-out: AUC0-tlast
# Experimental: Example 26: In Vivo Assessment of the Pharmacokinetics in Mice and Rats […] Male C57BL/6 mice (25-30 g) from Charles River Labs were acclimatized for a minimum of 5 days prior to dosing. Body weights will be recorded on the day of dosing. Animals dosed p.o. were deprived of food overnight and fed ˜2 h following dosing. Formulations were administered intravenously (i.v.) via the tail vein or orally (p.o.) by gavage with disposable feeding needles. Serial blood samples were collected via tail snip. […]
measured_property: AUC(0-t) (ng·h/mL)

compound="[2H]C([2H])([2H])N1CCC[C@@H]1Cc1c[nH]c2cccc(O)c12 [Compound I-2]" value=1370

====

# protocol_notes: In vivo pharmacokinetics in male SD rats (IV and PO)
# experimental_context: male, SD, plasma; rat, IV, 0.3 mg/kg; read-out: Vss
The following compounds are listed with their measured Vd values.
measured_property: Vd (L/kg)

substance_smiles=[2H]C([2H])(c1c[nH]c2cccc(OC)c12)[C@H]1CCCN1C([2H])([2H])[2H] measured_property=Vd value=10.1
substance_smiles=[2H]C([2H])(c1c[nH]c2cccc(O)c12)[C@H]1CCCN1C([2H])([2H])[2H] measured_property=Vd value=5.8
substance_smiles=[2H]C([2H])([2H])N1CCC[C@@H]1Cc1c[nH]c2cccc(O)c12 measured_property=Vd value=6.45

====

# protocol_notes: In vivo pharmacokinetics in male SD rats (IV and PO)
# experimental_context: male, SD, plasma; rat, IV, 0.3 mg/kg; read-out: Apparent t1/2 (converted)
The following molecules are listed with their measured half-life values.
measured_property: half-life (min)

substance_smiles=[2H]C([2H])(c1c[nH]c2cccc(OC)c12)[C@H]1CCCN1C([2H])([2H])[2H] value=46
substance_smiles=[2H]C([2H])([2H])N1CCC[C@@H]1Cc1c[nH]c2cccc(O)c12 value=35.6
substance_smiles=[2H]C([2H])(c1c[nH]c2cccc(O)c12)[C@H]1CCCN1C([2H])([2H])[2H] value=25.8
